Reference source: patent US10059667B2

Collected EC50 values appear next to each entry.
biological target: Human GPR40 (Homo sapiens (Human), UniProt O14842); experiment: Inositol Phosphate Turnover (IP1) Assay 1, HEK cells stably expressing human GPR40, 3H-inositol SPA; format: cell-based; settings: HEK cells stably expressing human GPR40, 96-well
Sequence (O14842 whole entry): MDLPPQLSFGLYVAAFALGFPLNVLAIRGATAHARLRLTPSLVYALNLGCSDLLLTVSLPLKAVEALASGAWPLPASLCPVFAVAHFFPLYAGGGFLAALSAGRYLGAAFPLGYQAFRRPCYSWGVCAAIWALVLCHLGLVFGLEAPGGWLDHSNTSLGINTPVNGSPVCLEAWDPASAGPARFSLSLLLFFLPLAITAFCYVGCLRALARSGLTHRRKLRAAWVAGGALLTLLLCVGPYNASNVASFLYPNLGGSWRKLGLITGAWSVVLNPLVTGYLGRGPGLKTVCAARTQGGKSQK
# number only, unit nM dropped from output

// solved cases for EC50 follow
molecule	EC50 [nM]
C[C@H](C(=O)O)[C@H](c1cccc(OCC2CCN(c3cc(C(F)(F)F)ccn3)CC2)c1)C1CC1 [Example 39]	218
C[C@H](C(=O)O)[C@H](c1cccc(OCC2CC(Oc3cccc(-c4ccccc4)c3)C2)c1)C1CC1 (single isomer, unassigned) [Example 120]	975
C[C@H](C(=O)O)[C@H](c1cccc(OC[C@H]2C[C@@H]2c2cccc(OC(F)(F)F)c2)c1)C1CC1 [Example 137]	176

EC50 in this record for COc1cccc(C2CC2COc2cccc([C@H](C3CC3)[C@H](C)C(=O)O)c2)c1 (single isomer, unassigned) [Example 83] : 94

For this molecule ( C[C@H](C(=O)O)[C@H](c1cccc(OC[C@H]2C[C@@H]2c2ccc(F)c(C(F)(F)F)c2)c1)C1CC1 [Example 144] ), measured EC50 is 385

Consider C[C@H](C(=O)O)[C@H](c1cccc(OC[C@H]2C[C@@H]2c2cc(C(F)(F)F)ccc2C(F)(F)F)c1)C1CC1 [Example 155] . Its measured EC50 is 316

Just so you know, measured EC50 for C[C@H](C(=O)O)[C@H](c1cccc(OCC2CC(Oc3ccnn3C)C2)c1)C1CC1 (stereo partly shown) [Example 101] came out at 7220
